Tested on: S. marcescens
Measurement description: In vitro activity (geometric mean MIC, serial dilution)
Format: cell-based
Experimental context: Serratia marcescens; 16 strains; Mueller-Hinton agar, inoculum 10^4 dilution; MIC cutoff 200 mcg./ml.; read-out: Geometric Mean MIC
Each entry below carries its reported MIC.
Returns: string containing the numeric result and its unit.

Exercise: Enter recorded MIC with S. marcescens for "CNCc1ccccc1CC(=O)N[C@@H]1C(=O)N2C(C(=O)O)=C(CSc3ccc4nn(CC(=O)O)c(=O)n4n3)CS[C@H]12" here.
Solution: 35 µg/mL

Exercise: Lab note: record MIC of "CNCc1ccsc1CC(=O)N[C@@H]1C(=O)N2C(C(=O)O)=C(CSc3ccc4nn(CC(=O)O)c(=O)n4n3)CS[C@H]12" tested on S. marcescens.
Solution: 200 µg/mL

Exercise: State measured MIC of the compound NCc1ccccc1CC(=O)N[C@@H]1C(=O)N2C(C(=O)O)=C(CSc3nnnn3CC(=O)O)CS[C@H]12 [BL-S786, reference compound] with S. marcescens.
Solution: 180 µg/mL

Exercise: Retrieve MIC on S. marcescens; query "NCc1ccccc1CC(=O)N[C@@H]1C(=O)N2C(C(=O)O)=C(CSc3ccc4nn(CC(=O)O)c(=O)n4n3)CS[C@H]12"
Solution: 130 µg/mL

New cases:
Exercise: // fetch MIC; item: "NCc1ccsc1CC(=O)N[C@@H]1C(=O)N2C(C(=O)O)=C(CSc3ccc4nn(CC(=O)O)c(=O)n4n3)CS[C@H]12" ; system: S. marcescens
Solution: 81 µg/mL

Exercise: Give measured MIC for Cn1nnnc1SCC1=C(C(=O)O)N2C(=O)[C@@H](NC(=O)[C@H](O)c3ccccc3)[C@H]2SC1 [Cefamandole, reference compound] (S. marcescens).
Solution: 34 µg/mL

Sourced from patent US4198506A
